Each recorded value in this set is attributed to PubChem BioAssay (NCI).

- Tested on: T-47D breast
- protocol: NCI-60 one-dose screen, 48 h (100 = growth as untreated, 0 = no growth, -100 = all killed)
- testConditions: 10 µM unless noted
The panel holds about 83,000 compounds, 20% with a hit somewhere; the sample as a whole holds those more often.
Exercise: for every item that follows, state its recorded growth.
Write the number in % without appending the unit.

Request: growth, test system T-47D breast, entry Cn1cc(C(=O)C[n+]2ccccc2)c2ccccc21
86.9

Request: growth, test system T-47D breast, entry Oc1cc(N2CC2)c(O)cc1N1CC1
19.2

Request: growth, test system T-47D breast, entry Oc1cc(Cl)ccc1Oc1ccc(Cl)cc1Cl
17.9

Request: growth, test system T-47D breast, entry Nc1cccnc1
106

Request: growth, test system T-47D breast, entry O=C(O)CNCP(=O)(O)O
111

Request: growth, test system T-47D breast, entry COC[C@H]1OC(=O)c2coc3c2[C@@]1(C)C1=C(C3=O)[C@@H]2CCC(=O)[C@@]2(C)C[C@H]1OC(C)=O
-2.63

Request: growth, test system T-47D breast, entry O=C1c2ccccc2C(=O)N1N1CC1c1ccccc1 (configuration not stated)
89.2

Request: growth, test system T-47D breast, entry N#CC(C#N)=C(C#N)C#N
95.8

Request: growth, test system T-47D breast, entry C/C(=N/OC(=O)N(C)C)c1ccc(Cl)c(Cl)c1
95.6

Request: growth, test system T-47D breast, entry COc1ccc2c(c1)c(-c1nc(-c3cn(C)c4ncccc34)cs1)cn2CCCCN1CCOCC1
64.5

Request: growth, test system T-47D breast, entry O=[N+]([O-])c1ccc2scc3c4ccccc4nc-3c2c1
-24.3

Request: growth, test system T-47D breast, entry CCOC(=O)c1ccccc1C(=O)OCC
100

Request: growth, test system T-47D breast, entry O=NN1CCCCC1
102

Request: growth, test system T-47D breast, entry COc1ccn(C)c(=O)c1C#N
81.6

Request: growth, test system T-47D breast, entry CC12CCC3C4CCC(=O)C=C4CCC3C1CC1CC(=O)OC12 (configuration not stated)
101

Request: growth, test system T-47D breast, entry Nc1ccc2c(c1)Cc1cc(N)ccc1-2
67.3

Request: growth, test system T-47D breast, entry CNC(=O)O/N=C(\SC)C(=O)N(C)C
97.1

Request: growth, test system T-47D breast, entry O=C(NC(Cl)=C(Cl)Cl)P(=O)(c1ccccc1)c1ccccc1
105

Request: growth, test system T-47D breast, entry CC(=O)C(N)Cc1ccccc1 (configuration not stated)
78.3

Request: growth, test system T-47D breast, entry Cc1c(C)c(N)c(C)c(C)c1N
92.6

Request: growth, test system T-47D breast, entry N#CC(N)c1ccccc1 (configuration not stated)
114

Request: growth, test system T-47D breast, entry Cc1nnc([S-])o1.[Au+].c1ccc([PH+](c2ccccc2)c2ccccc2)cc1
29.6

Request: growth, test system T-47D breast, entry O=C(O)C(Br)CBr (configuration not stated)
89.6

Request: growth, test system T-47D breast, entry CCCCn1c(=O)c(C(=O)NCc2ccccc2Cl)c(O)c2ccccc21
85.6

Request: growth, test system T-47D breast, entry C[C@]12CCc3nc(-c4ccc(O)c(O)c4)sc3C1=CC[C@@H]1[C@@H]2CC[C@]2(C)C(=O)CC[C@@H]12
69

Request: growth, test system T-47D breast, entry [N-]=[N+]=CC(=O)CCC(=O)C=[N+]=[N-]
106

Request: growth, test system T-47D breast, entry COc1ccc2c(c1)C1(C)CCN(C)CC(C1)C2O (configuration not stated)
95.2
